Tested on: Botrytis cinerea
assay remarks: Test F: tomato Botrytis, preventive spray on tomato seedlings, disease rating
Format: in vivo
condition info: 200 ppm
Hi there, I'd appreciate the recorded Percentage Disease Control, Test F for every entry that follows.
Give bare numbers, in %.

These recorded examples may help you get a feel for the data.
COC(=O)NCc1cc(-c2cc(C(F)(F)F)n(CCC(C)(C)C)n2)ccc1Cl    0
COC(=O)NCc1cc(-c2ccn(S(=O)(=O)N(C)C)n2)ccc1Cl    0
C#CCCCn1nc(-c2ccc(Cl)c(CNC(=O)OC)c2)cc1C    0
COC(=O)NCc1cc(-c2ccn(CCCC(c3ccc(F)cc3)c3ccc(F)cc3)n2)ccc1Cl    0
COC(=O)NCc1cc(-c2cc(-c3ccc(C(C)(C)C)cc3)[nH]n2)ccc1Cl    98

Field: Percentage Disease Control, Test F. Fill in for each record below.
1. COC(=O)NCc1cc(-c2ccn(CC#N)n2)ccc1Cl
2. COC(=O)NCc1cc(-c2ccn(CCC[Si](C)(C)C)n2)ccc1Cl
3. COC(=O)NCc1cc(-c2ccn(-c3nc(C)ns3)n2)ccc1Cl
4. COC(=O)NCc1cc(-c2ccn(-c3cccc(C#N)c3)n2)ccc1Cl
5. COC(=O)NCc1cc(-c2ncn(-c3ccc(Br)cc3)n2)ccc1Cl
6. COC(=O)NCc1cc(-c2ccn(CCCC(C)C)n2)ccc1Cl

1: 0; 2: 0; 3: 0; 4: 24; 5: 0; 6: 0

Please give Percentage Disease Control, Test F, item by item, for the list that follows.
1. COC(=O)NCc1cc(-c2ccn(CCCC#N)n2)ccc1Cl
2. COC(=O)NCc1cc(-n2ccc(-c3ccc(Cl)cc3)n2)ccc1Cl
3. COC(=O)NCc1cc(-c2ccn(C)n2)ccc1Cl
4. COC(=O)NCc1cc(C(C)=NOC[Si](C)(C)c2ccc(F)cc2)ccc1Cl
5. COC(=O)NCc1cc(-c2ccn(-c3cccc(C(F)(F)F)c3)n2)ccc1Cl

1. 0
2. 63
3. 0
4. 67
5. 0
